# Tested on: MOLT-4 leukemia
# experiment notes: NCI tumour cell line growth inhibition, 48 h
measurement name: GI50

CC(C)(C)c1ccc(C(=O)Nc2sc3c(c2C#N)CCC(=O)C3)cc1    324 nM
NCCOc1ncccc1/C=C1\c2ccccc2-c2ccc(F)cc21    282 nM
[O-]c1ccccc1/C=N/c1nccs1.[O-]c1ccccc1/C=N/c1nccs1.[O]=[U+2]=[O]    27400 nM

Recorded GI50 (compound "Cc1cc(-c2ncc(-c3cccnc3)cc2/C=C/c2ccccc2)cnc1-c1cccnc1" ): 1470 nM

Recorded GI50 (compound "O=S1CCN(Cc2ccc(-c3ccc4ncnc(Nc5ccc(OCc6ccccc6)c(Cl)c5)c4c3)o2)CC1" ): 9060 nM

Recorded GI50 (compound "COc1cc(C(=O)/C=C/c2ccc(OCCCCCC[P+](c3ccccc3)(c3ccccc3)c3ccccc3)cc2)cc(OC)c1OC" ): 559 nM

Recorded GI50 (compound "O=C1/C(=C/c2ccc(Cl)cc2)COc2ccc(O)cc21" ): 1840 nM

Recorded GI50 (compound "C[C@@]12C(=O)OC(=O)[C@]1(C)[C@H]1CC[C@@H]2O1" ): 3880 nM

Recorded GI50 (compound "C=C(C)C(=O)Oc1ccc(N=Nc2ccc(C)cc2)ccc1=O" ): 2570 nM

Recorded values, source PubChem BioAssay (NCI).
